Measured values drawn from BindingDB's records for doi:10.1016/j.ejmech.2019.111626 for this set.

# Target entity: 5-hydroxytryptamine receptor 2A (Homo sapiens)
# Sequence (P28223 whole entry): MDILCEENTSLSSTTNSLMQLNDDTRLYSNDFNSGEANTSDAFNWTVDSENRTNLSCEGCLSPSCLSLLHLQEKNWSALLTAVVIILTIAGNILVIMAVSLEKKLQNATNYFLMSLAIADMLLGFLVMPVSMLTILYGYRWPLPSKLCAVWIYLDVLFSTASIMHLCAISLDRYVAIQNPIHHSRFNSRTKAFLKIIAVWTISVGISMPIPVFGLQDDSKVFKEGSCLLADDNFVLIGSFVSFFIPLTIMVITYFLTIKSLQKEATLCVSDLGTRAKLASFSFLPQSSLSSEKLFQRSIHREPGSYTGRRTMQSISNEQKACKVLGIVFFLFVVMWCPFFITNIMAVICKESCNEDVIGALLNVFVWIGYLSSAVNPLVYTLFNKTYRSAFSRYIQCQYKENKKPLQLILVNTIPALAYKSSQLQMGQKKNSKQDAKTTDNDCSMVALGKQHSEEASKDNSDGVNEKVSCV
# Method description: Agonist activity at recombinant human 5HT2A receptor expressed in Flp-In-293 cells assessed as increase in calcium influx measured for 300 secs by Fluo-4 dye based FLIPR assay
Test readout: pEC50
Keep it numeric: pEC50 is minus log10 of the concentration in mol/L.

Per the record, NC[C@H]1C[C@]1(F)c1cccc(F)c1 has pEC50 of 8.57
